Value source: patent US20240366778A1

The entries below come with measured Kd values attached.
Molecular target: T1, Human Nectin-4 Protein, His Tag (human, UniProt Q96NY8 32-349)
T1 construct: not shown: His tag
T1 sequence (looked up): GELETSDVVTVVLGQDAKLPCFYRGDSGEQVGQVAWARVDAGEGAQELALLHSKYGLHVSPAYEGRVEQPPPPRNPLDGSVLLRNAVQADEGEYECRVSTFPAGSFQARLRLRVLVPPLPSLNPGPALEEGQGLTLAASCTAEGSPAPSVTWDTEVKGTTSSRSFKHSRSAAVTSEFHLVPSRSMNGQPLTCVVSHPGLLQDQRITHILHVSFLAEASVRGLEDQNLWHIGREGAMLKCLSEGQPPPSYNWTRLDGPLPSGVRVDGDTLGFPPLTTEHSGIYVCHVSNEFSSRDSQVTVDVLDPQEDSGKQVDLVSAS
Experiment: BLI (Fortebio), antibody with human Nectin-4 protein

[
  {
    "Binder": "humanized antibody SWY2001-Ab3 (antibody, human IgG1, kappa, V domains shown, Full-length IgG1, kappa) VH: QVQLVQSGAEVKKPGASVKVSCKASGYTFTSYYIHWVRQAPGQRLEWMGWIYPGNVNTKYNENFRDRVTITRDTSASTAYMELSSLRSEDTAVYYCARGIYYFDYWGQGTLVTVSS VL: AIQMTQSPSSLSASVGDRVTITCKASQSVNNDVAWYQQKPGKAPKLLIYYASNRDTGVPSRFSGSGSGTDFTLTISSLQPEDFATYFCHQDYSSPFTFGGGTKVEIKR",
    "Kd / nM": 5.08
  },
  {
    "Binder": "Chimeric antibody (antibody, V domains shown, also called chimeric anti-Nectin-4 antibody; murine antibody variable regions on human IgG1) VH: QVQLQQSGPVLVKPGASVRISCKASGYTFTSYYIHWVKQRPGQGLEWIGWIYPGNVNTKYNENFRDKATLTADKSSSTSYMQLSSLTSEDSAVYFCARGIYYFDYWGQGTTLTVSS VL: IIVMTQTPKFLLVSAGDRVTITCKASQSVNNDVAWYQEKPGQSPKLLIYYASNRDTGVPDRFTGSGYGTDFTFTISTVQAEDLAVYFCHQDYSSPFTFGSGTKLEIK",
    "Kd / nM": 2.8
  },
  {
    "Binder": "humanized antibody SWY2001-Ab1 (antibody, human IgG1, kappa, V domains shown) VH: QVQLVQSGAEVKKPGASVKVSCKASGYTFTSYYIHWVRQAPGQRLEWMGWIYPGNVNTKYNENFRDRVTITRDTSASTAYMELSSLRSEDTAVYYCARGIYYFDYWGQGTLVTVSS VL: IIQMTQSPKFLSASVGDRVTITCKASQSVNNDVAWYQQKPGQSPKLLIYYASNRDTGVPDRFSGSGSGTDFTLTISSLQPEDFATYFCHQDYSSPFTFGGGTKVEIKR",
    "Kd / nM": 5.92
  }
]
